# Test system: PHF6
# Experiment: 3' UTR reporter interaction score (median-centred robust z-score of log2 firefly/Renilla activity); higher = less repression of the 3' UTR reporter
# Experimental Context: HEK293T; 48 h
# 3' UTR reporter interaction score annotations
# print the numeric value only

[[record]]
macromolecule_sequence = "CCUAGUAGGUGUCCAGUAAGUGU"
readout_label = "3' UTR reporter interaction score"
data_value = -0.224

[[record]]
macromolecule_sequence = "CUUCUUGUGCUCUAGGAUUGU"
readout_label = "3' UTR reporter interaction score"
data_value = -0.418

[[record]]
macromolecule_sequence = "UAUUGCACUUGUCCCGGCCUG"
readout_label = "3' UTR reporter interaction score"
data_value = 0.0608

[[record]]
macromolecule_sequence = "AAGUGCUUCCUUUUAGAGGGUU"
readout_label = "3' UTR reporter interaction score"
data_value = 1.07


Enquiry: Give PHF6 3' UTR reporter interaction score for the following sequence: "AGGAAUGUUCCUUCUUUGCC"
Return: -0.446

Enquiry: Name the value of 3' UTR reporter interaction score reported for "AGGGUAAGCUGAACCUCUGAU" when tested on PHF6.
Return: -0.384

Enquiry: # assay system PHF6: give 3' UTR reporter interaction score of "AAUGGCGCCACUAGGGUUGUGCA"
Return: 0.0523

Enquiry: Give PHF6 3' UTR reporter interaction score for the following sequence: "AAAGUAGCUGUACCAUUUGC"
Return: -0.00285

Enquiry: Look up and report measured 3' UTR reporter interaction score (PHF6) for the following sequence: "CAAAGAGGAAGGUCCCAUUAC"
Return: -0.348

Enquiry: # return 3' UTR reporter interaction score for "AUUGACACUUCUGUGAGUAG" , test system: PHF6
Return: -0.709

Enquiry: # return 3' UTR reporter interaction score of "CAAAGCGCUUCUCUUUAGAGUG" (system: PHF6)
Return: 1.07
